Assay: soluble on expression in E. coli; label from the status in PepcDB or PDB records

>  <Sequence Input>
MGSDKIHHHHHHMNIQQMKYVAAIANNGSFREAAKKLFITQPSLSNSIRELEEELGISLFLRTNKGAFLTEEGMVFLEQAEKVLVQMELLENRYRETVTSERFSISSQHYDFLGEVIAKVLKKYGDQYKDFRVFETTTLKVIEDVKGFHSELGIIYLNEQNSVSIERYLEQANLAYEVISTFNTHIFLGNHHPLAKQKEIHLEELVPYPQVRFNQEGSNFSYFSEDLVEIPEQESVIHTTDRGTLMNLLVETNAYASGSGVVTGFTKKEIRLVPLAPALENRICLLFPKNREISPIGRYFIKELKALFKKEVDTKTFSTKE

>  <soluble on expression in E. coli>
not soluble

$$$$
>  <Sequence Input>
GHHHHHHAIAENLYFQSEVSKANGTENNVEKFDAATQEATYLDEADVDAELEAMKKRLQEMEEEANRLKEVQEQSASEVPSSEEVDRRSVYVGNVDYGSTPEELQAHFKECGTINRVTILCDKFTGHPKGFAYIEFATEEGANNAVILNESLFRGRNLKVSIKRTNVPGISTTDRGRGRGFPRGIGFRGRGGLRGGFRGRGYHGFRGRGRMTPY

>  <soluble on expression in E. coli>
not soluble

$$$$

====

Assay: soluble on expression in E. coli; label from the status in PepcDB or PDB records

>  <Sequence Input>
MMNEKNPPLVSILIPTYNRPHYFKIALESALAQTYSNIEIIIGDDSTNDETATLIREQYLPNYKNITYIRNTPTLGQFHNDLMLIEKSNGEYINFLMDDDVFYKHKIQKMMTYFEQDPNKNLALVTSYRVRIDDHGNLIGDSHPTQRLYSEDTPLNGIFLGNWMLKGGHNIIGEPTTTLFRKELLTEPFGTLKERQYSCSVDMASWISLLSKGNAIYISEPLSQFRYHAGQQIHNKLLQGCEDFTHLVITAKEYGFLQNTTDYRAALLSAYQWCKSSLKYYLHQLDIFPDAHVRLSHCLDIIIKELNNLEHHHHHH

>  <soluble on expression in E. coli>
soluble

$$$$
>  <Sequence Input>
MAHHHHHHMGSTDGECASSLRGHRMPSWILSHLETESKCLNDTPLVEEEKAPPSVPVTVLKKRFPQGLKILKKAPPKEKIVMPVEEECADSCRSSRPSVSVQSAVPGNGHRIARHTIRFRMSDWANLIEEKKDLVAQAVKEDISEGCGLDIGRILQLELKLTDILVVTFIVDHSHDDGGERPFHARLKVCKFPRTSSLYLLR

>  <soluble on expression in E. coli>
soluble

$$$$

====

Experiment: soluble on expression in E. coli; label from the status in PepcDB or PDB records
Measured Attribute: soluble on expression in E. coli

>  <Sequence Input>
MIPISVLVTNAGTVSFHIKGEYNRDRPSKFSDVFRPVVTWNLTRKCNLKCLHCYINASPEGEDGLTTEEALGLIDEMAEMKIPLIIMSGGEPLMRRDFFELASYARSKGIKLALSTNGTLISESVAKRLKELDFSYVGISLDSYDPEFHDKFRGLNGAFNMTVKGIGNAINVGLNVGLRFTITAKNIHQVDEYMKLALKLGVKRITFYHLSASGRGRELREWMYTLEEYVSFINKMIDYAIKLSGKIEIETTLGQFDGVYIAKKLARNEEELEKYLKFVENSGGCGRKMISIYPNGDVYPCQFIDFYKLGNVREKPLKEIIKNIPDLFINTDKYLKGRYCDKCEYKSACKGGDRARAYYWNEDIYGDDPLCPLKTLHI

>  <Measured Attribute>
soluble on expression in E. coli

>  <Obs Value>
not soluble

$$$$
>  <Sequence Input>
MRGSHHHHHHGSATSANTDRIATAELGIAENKKDAQIAKAQANENKDGIAKNQADIQLHDKKITNLGILHSMVARAVGNNTQGVATNKADIAKNQADIANNIKNIYELAQQQDQHSSDIKTLAKVSAANTDRIAKNKAEADASFETLTKNQKLCSQA

>  <Measured Attribute>
soluble on expression in E. coli

>  <Obs Value>
soluble

$$$$
>  <Sequence Input>
MGSSHHHHHHSSGLVPRGGSHMSAASSIFDFEVLDADHKPYNLVQHKGSPLLIYNVASKCGYTKGGYETATTLYNKYKSQGFTVLAFPCNQFGGQEPGNEEEIKEFVCTKFKAEFPIMAKINVNGENAHPLYEYMKKTKPGILKTKAIKWNFTSFLIDRDGVPVERFSPGASVKDIEKKLIPLLESTQSA

>  <Measured Attribute>
soluble on expression in E. coli

>  <Obs Value>
soluble

$$$$
>  <Sequence Input>
MNIFNPNHDRKAIVIFSGGQDSTTCLFQAIAEYGKENIEAITFQYGQRHAIELEKARTIAQDLGIKQTLIDTSVMKAITHNALMDEQAHIEQKENELPNTFVDGRNALFLLYAAIYAKGQGIQDIITGVCETDFSGYPDCRDVFIKSMNVTLNLAMDYPIPISKTPLMYLTKAQTWQLADEFRRIRLCTKTYSHLL

>  <Measured Attribute>
soluble on expression in E. coli

>  <Obs Value>
not soluble

$$$$
>  <Sequence Input>
MSEKPLTKTDYLMRLRRCQTIDTLERVIEKNKYELSDNELAELTMNKLYDKIPSSVWKFIRLAVFYSAADHR

>  <Measured Attribute>
soluble on expression in E. coli

>  <Obs Value>
not soluble

$$$$
>  <Sequence Input>
MERSRDFLLQAKRDLEQARLSLREGFFEWAAFAAQQAAEKAVKAVFQRLGAVAWGHSVAGLLEELAQKLPVPEALLDAASELDKAYIPSRYPDALPEGAPFQRYRRGEAERLLGHAEAVYAYCEGVLSQMDEGGAPPPHRGGA

>  <Measured Attribute>
soluble on expression in E. coli

>  <Obs Value>
soluble

$$$$
>  <Sequence Input>
PPCDSIVVAYYFCGEPIPYETLVRGRAVTLGQFKELLTKKGSYRYYFKKVSDEFDCGVVFEEVREDEAILPVFEEKIIGKVEKVD

>  <Measured Attribute>
soluble on expression in E. coli

>  <Obs Value>
soluble

$$$$
>  <Sequence Input>
MYLTKEEELALSGEYGPAIQKAMEILVALGDIYNADRLIPIKSAQIAGVSYKNIGDEGIEFLRDFVEAGAKVSVYTTLNPAGIGDEDFMEKQAEIIELYRKMGVEITSTCTPYYGPNLPKYGDHLAWSESSAVIFANSVLGARTNREGGPSSLAAAIVGKTPNYGLHLEENRKATHIIEVKDKLKSRTEYSLLGYKIGEIVENGVPYIRGIAPTTEDLKALGASMAASGGVGLYHVEGSTPEWRGAIVDKIEKIEIGRKDLEDVRQRFSVDWGDVDIILLGCPHASLREIKEIAELLRMRDKPLKIPLFITVSRGIKALADYLGYTEIIERYNGKLLPDVCLVVSPIKEWYSGVATDSGKAAFYLKSFGLKVLLDTTENIIMGAPLEHHHHHH

>  <Measured Attribute>
soluble on expression in E. coli

>  <Obs Value>
not soluble

$$$$

====

Experiment: soluble on expression in E. coli; label from the status in PepcDB or PDB records

>  <Sequence Input>
MSLKALARFGKAFGGYKMIHVPQPICGPEDVVTEIKAAAICGADMKHYNVDSGSDEFNSIRGHEFAGCIAQVGEKVKDWKVGQRVVSDNSGHVCGVCPACEQGDFLCCTEKVNLGLDNNTWGGGFSKYCLVPGEILKIHRHALWEIPDGVDYEDAAVLDPICNAYKSIAQQSKFLPGQDVVVIGTGPLGLFSVQMARIMGAVNIVVVGLQEDVAVRFPVAKELGATAVVNGSTEDVVARCQQICGKDNLGLVIECSGANIALKQAIEMLRPNGEVVRVGMGFKPLDFSINDITAWNKSIIGHMAYDSTSWRNAIRLLASGAIKVKPMITHRIGLSQWREGFDAMVDKTAIKVIMTYDFDEGHHHHHH

>  <soluble on expression in E. coli>
not soluble

$$$$
>  <Sequence Input>
MNDDLIMRKKPEQIEMEFQDSGESALVKSTLLSSLQNSEWEIAVRKEVKKFLEKARDDVSAKEVFDAVKDMARREIPQEAKKKLYDQVLEFVTTTNKK

>  <soluble on expression in E. coli>
not soluble

$$$$

====

Experiment: soluble on expression in E. coli; label from the status in PepcDB or PDB records

>  <Sequence Input>
MTNYVKKVSIEDFGCQFLHTAHWNNRLRTTGGRFFPNDRHLDFNPKIYREFGIDIFRKIVRHELCHYHLYIQGKGYQHRDKAFKELLEKVDGLRYTPRVTAVKVNYHHYSCQSCGQVYRRRRRVNLRKFACGYCHGRLIESFLEHHHHHH

>  <soluble on expression in E. coli>
not soluble

$$$$
>  <Sequence Input>
GDFIVVQSTTSTQNSGLLDHILPAFEAETGIEVRVVAVGTGQAIRNAANGDGDVLLVHAKAAEEKFVAEGWGVERFDVMYNDFVLVGPASDPAGVRGGSDIVAALSAIAGAEAPFASRGDDSGTHKAELRHWASAGIDVSAASGGWYRETGSGMGATLNLAAGMGAYALSDRATWIAFGNKGDLVVAVEGDARLFNQYGVILVNPAKHPGVKAEAGQRFIDWLTGDEGQAAIAGYTL

>  <soluble on expression in E. coli>
not soluble

$$$$
>  <Sequence Input>
KNAELSIKLNKEEYQANEDIEIQITAPYTGSGLITIERDKVYAVHWFKTEAQNSVQTIRIPADFQGNGYVNVAFIRDWESPELFISPLSYSVAPFNVNHDKHDIKIGLKTPELARPGESFTIDYHTDKPGKIIVFAVDEGILQVANY

>  <soluble on expression in E. coli>
not soluble

$$$$
